molecular target: B-Raf (V600E) (Homo sapiens (Human), UniProt P15056, V600E); experiment: Raf IC50 assay, TR-FRET, B-Raf (V600E); conditions: 0.1 mM ATP; read-out: IC50 BRAF-V600E
Sequence (P15056 whole entry V600E): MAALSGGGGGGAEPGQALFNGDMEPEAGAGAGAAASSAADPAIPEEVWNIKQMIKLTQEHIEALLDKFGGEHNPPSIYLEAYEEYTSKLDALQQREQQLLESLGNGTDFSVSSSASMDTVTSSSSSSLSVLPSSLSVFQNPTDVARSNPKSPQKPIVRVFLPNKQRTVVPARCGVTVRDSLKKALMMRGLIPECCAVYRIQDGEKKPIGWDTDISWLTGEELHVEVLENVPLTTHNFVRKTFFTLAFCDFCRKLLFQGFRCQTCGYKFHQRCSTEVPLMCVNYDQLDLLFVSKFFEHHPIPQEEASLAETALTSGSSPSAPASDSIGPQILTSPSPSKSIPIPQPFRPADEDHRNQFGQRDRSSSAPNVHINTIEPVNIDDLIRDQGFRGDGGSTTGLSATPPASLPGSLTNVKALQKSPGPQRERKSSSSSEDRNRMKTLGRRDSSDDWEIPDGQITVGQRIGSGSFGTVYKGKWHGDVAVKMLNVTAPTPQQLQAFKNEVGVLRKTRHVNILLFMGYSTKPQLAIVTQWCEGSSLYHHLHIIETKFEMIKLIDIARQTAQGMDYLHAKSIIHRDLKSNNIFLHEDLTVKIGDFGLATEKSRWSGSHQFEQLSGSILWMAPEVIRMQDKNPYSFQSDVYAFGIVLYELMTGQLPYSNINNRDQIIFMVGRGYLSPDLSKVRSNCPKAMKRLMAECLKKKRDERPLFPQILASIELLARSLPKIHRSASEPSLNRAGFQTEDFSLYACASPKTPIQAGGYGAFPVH
quantity: IC50 (nM)
Numbers only; they are read as nM.

These solved cases illustrate the format of a correct answer.
[[record]]
smiles = "CN(C)C1CCN(c2ccc(C(=O)N[C@@H]3[C@H]4Oc5ccc(Oc6ccnc7c6CCC(=O)N7)cc5[C@@H]34)cc2C(F)(F)F)CC1"
target = "B-Raf (V600E) (Homo sapiens (Human), UniProt P15056, V600E)"
quantity = "IC50"
reading = 10

[[record]]
smiles = "CCN1CCN(Cc2ccc(C(=O)N[C@@H]3[C@H]4Oc5ccc(Oc6ccnc7c6COC(=O)N7)cc5[C@@H]34)cc2C(F)(F)F)CC1"
target = "B-Raf (V600E) (Homo sapiens (Human), UniProt P15056, V600E)"
quantity = "IC50"
reading = 16

[[record]]
smiles = "CN1CCN(Cc2ccc(C(=O)N[C@@H]3[C@H]4Oc5ccc(Oc6ccnc7c6CCC(=O)N7)cc5[C@@H]34)cc2)CC1"
target = "B-Raf (V600E) (Homo sapiens (Human), UniProt P15056, V600E)"
quantity = "IC50"
reading = 5.9

[[record]]
smiles = "CCN1CCN(Cc2ccc(C(=O)N[C@@H]3[C@H]4Oc5ccc(Oc6ccnc7c6CCC(=O)N7)cc5[C@@H]34)cc2C(F)(F)F)CC1"
target = "B-Raf (V600E) (Homo sapiens (Human), UniProt P15056, V600E)"
quantity = "IC50"
reading = 5.3

[[record]]
smiles = "O=C1CCc2c(Oc3ccc4c(c3)[C@H]3[C@H](NC(=O)c5cccc(C(F)(F)F)n5)[C@H]3O4)ccnc2N1"
target = "B-Raf (V600E) (Homo sapiens (Human), UniProt P15056, V600E)"
quantity = "IC50"
reading = 2.5


Prompt: Record lookup: for B-Raf (V600E) (Homo sapiens (Human), UniProt P15056, V600E), what IC50 belongs to CN1CCN(Cc2ccc(C(=O)N[C@@H]3[C@H]4Oc5ccc(Oc6ccnc7c6CCC(=O)N7)cc5[C@@H]34)cc2Br)CC1 ?
Response: 5.4
